The measured values listed here are drawn from patent US8338565B2.

- targetDesc: TNFα / TNFα receptor (TNFα R1/Fc) (Homo sapiens, UniProt P01375)
- Construct: purchased R&D Systems
- Sequence (P01375 77-233 limits assumed, species assumed): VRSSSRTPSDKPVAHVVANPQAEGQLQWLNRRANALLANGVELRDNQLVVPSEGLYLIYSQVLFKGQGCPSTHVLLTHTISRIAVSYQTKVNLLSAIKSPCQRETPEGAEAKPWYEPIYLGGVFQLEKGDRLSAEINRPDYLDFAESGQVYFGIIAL
- protocolDescription: Inhibition of binding of TNFα to the TNFα receptor (plate ELISA competition)
- conditionParameters: Table 2; read-out: Activity (IC50, inhibition of TNFα binding to TNFα R1/Fc)
IC50 listing for selected compounds.

- smilesCode: "O=C1COc2ccc(cc2)C[C@@H](C(=O)O)NC(=O)[C@H](CCc2ccccc2)NC(=O)[C@@H](Cc2ccc(-c3ccccc3)cc2)NC(=O)[C@H](Cc2ccc(C(F)(F)F)cc2)N1"
  IC50: "< 10 µM"
- smilesCode: "C[C@H](NC(=O)[C@@H]1Cc2ccc(cc2)OCC(=O)N[C@H](Cc2cccs2)C(=O)N[C@@H](Cc2ccc(-c3ccccc3)cc2)C(=O)N[C@H](CCc2ccccc2)C(=O)N1)C(=O)O"
  IC50: "< 10 µM"

Consider now this further compound.
INPUT: Find the recorded IC50 belonging to O=C(O)CN1Cc2cccc(c2)CNC(=O)CCC(=O)N[C@H](Cc2cccs2)C(=O)N[C@@H](Cc2ccc(-c3ccccc3)cc2)C(=O)N[C@H](Cc2ccccc2)C1=O and report it.
OUTPUT: > 100 µM
